The reported measurements were obtained from ChEMBL document CHEMBL1201862.

What GI50 was measured for each of the following?
System: UO-31
PROTOCOL: NCI tumour cell line growth inhibition, 48 h
The source made the active and inactive calls. Rule as the data show it: active = GI50 up to about 1.1 µM and inactive = higher.

Consider the reported GI50 for these compounds:
CC1(C)CC(=O)c2c(nc3c(ccc4ccccc43)c2-c2ccc(NC(=O)CCCC(=O)Nc3ccc(-c4c5c(nc6c4ccc4ccccc46)CC(C)(C)CC5=O)cc3)cc2)C1 ... > 100 µM (inactive)
Cc1cc(C)nc(NS(=O)(=O)c2ccc(Nc3c4ccccc4nc4c(C(=O)NCCN(C)C)cccc34)cc2)n1 ... 1.49 µM (inactive)
CC(=O)c1ccc(-c2ccc(C(C)=O)s2)s1 ... > 100 µM (inactive)
CC(=O)c1ccc2c3c1O[C@H]1c4[nH]c5ccccc5c4C[C@@]4(O)[C@@H](C2)N(CC2CC2)CC[C@]314 ... 15.3 µM (inactive)

// next entry
Data request: Entry "CN(CC(=O)O)CC(=O)O" : reported GI50 = ?
Data returned: > 100 µM (inactive)

* * *

Test system: ACHN
PROTOCOL: NCI tumour cell line growth inhibition, 48 h
Active and inactive are the calls of the source. No stated cut-off is given here; in the data, active = GI50 up to about 1.1 µM and inactive = higher.
Choose the fitting class; nothing outside t for active, f for inactive is accepted.

Some solved entries appear below for comparison.
CN(C)CCNc1nc2ccccc2c2c1C(=O)c1ccccc1-2 ... t
N=c1oc2ccccc2cc1C(=O)Nc1cccc2ccccc12 ... f
Cc1nnc(N/N=C2/C(=O)Nc3ccccc32)nc1O ... f

We next turn to a different molecule, shown below.
Data request: Hi, do you know how "Cc1cc(-c2nc3cc(O)ccc3s2)ccc1N" came out in this test?
Data returned: f

* * *

Test system: NCI-H522
PROTOCOL: NCI tumour cell line growth inhibition, 48 h
The source made the active and inactive calls. Rule as the data show it: active = GI50 up to about 1.1 µM and inactive = higher. *1 amine or outer side, *2 acyl side, *3 side chain or, on linkers, in order; H or OH if unused. Where a SMILES comes first, the peptide text is derived from it. [ ]: non-standard residue; d: D form. The star is where a group is joined. ξ: configuration not given here. X53 = CC(C)C[C@H](N[*:1])C1=N[C@H](C(=O)[*:2])CS1; Ile(3ξ) = CCC(C)[C@H](N)C(=O)O; Allyl(1,1-Me2) = C=CC(C)(C)*
PARAMETER MEASURED: GI50

// each listed compound needs a value for GI50
1. COc1ccc(/C(Cl)=C(\C#N)c2ccc(OC)c(OC)c2)cc1OC
2. CN(CCCN1C(=O)c2cccc3cc([N+](=O)[O-])cc(c23)C1=O)CCN(C)CCCN1C(=O)c2cccc3cc([N+](=O)[O-])cc(c23)C1=O
3. N#Cc1c(N)nc(S)c(C#N)c1-c1ccccc1
4. COc1ccc(C(c2ccccc2C(=O)O)c2ccc(OC)c3ccccc23)c2ccccc12
5. Cc1ccc(C2=Nc3ccccc3[S+]([O-])C(c3ccc4c(c3)OCO4)C2)cc1 (stereo not drawn)
6. COc1ccc(-c2oc3c(OC)c(OC)cc(O)c3c(=O)c2OC)cc1

Data returned:
1. 59.8 µM (inactive)
2. > 39.3 µM (inactive)
3. 47.3 µM (inactive)
4. 12.6 µM (inactive)
5. 18.3 µM (inactive)
6. 54.8 µM (inactive)

// each listed compound needs a value for GI50
1. C/C(=N\NC(=S)NCCNC(=S)N/N=C(\C)c1ccccn1)c1ccccn1
2. C=CC(C)(C)OC[C@@H]1NC(=O)CNC(=O)[C@@H]2CCCN2C(=O)[C@H](C(C)CC)NC(=O)[C@@H]2CSC(=N2)[C@H](CC(C)C)NC1=O (stereo partly drawn) (cyclo(GS(Allyl(1,1-Me2))[X53][Ile(3ξ)]P))

Data returned:
["6.04 µM (inactive)", "32.9 µM (inactive)"]

* * *

What GI50 was measured for each of the following?
Test system: M14
PROTOCOL: NCI tumour cell line growth inhibition, 48 h
Calls of active or inactive are those of the source. No stated cut-off is given here; in the data, active = GI50 up to about 1.1 µM and inactive = higher.

Consider the reported GI50 for these compounds:
O=C1C2CC(Cl)C(SSC3CC4C(=O)N(SC(Cl)(Cl)C(Cl)Cl)C(=O)C4CC3Cl)CC2C(=O)N1SC(Cl)(Cl)C(Cl)Cl (configuration not stated) ... 1.21 µM (inactive)
O=C1C=C(Nc2cccnc2)c2ccccc2C1=O ... 1.91 µM (inactive)
O=C(CCCCCCCCC(=O)OCC1OC(n2cnc3c(=O)[nH]cnc32)C(O)C1O)OCC1OC(n2cnc3c(=O)[nH]cnc32)C(O)C1O (configuration not stated) ... > 100 µM (inactive)
O=[N+]([O-])C(=C1c2ccccc2-c2ccccc21)[N+](=O)[O-] ... > 100 µM (inactive)
CCCCCC[C@@H]1CCC2C(CO)[C@@H](O)CC[C@@H]2C1 (some centres not stated) ... 17.5 µM (inactive)

// each listed compound needs a value for GI50
1. O=C1/C(=C/c2ccc(O)cc2)CCc2ccccc21
2. CCCCCCC(=O)OC[n+]1cccc(-c2c(COC(=O)NC(C)C)c(COC(=O)NC(C)C)c3n2CCC3)c1

Data returned:
20.2 µM (inactive)
39.2 µM (inactive)

* * *

Test system: M14
PROTOCOL: NCI tumour cell line growth inhibition, 48 h
Activity calls are given as the source filed them. Rule as the data show it: active = GI50 up to about 1.1 µM and inactive = higher.
Choose the fitting class; nothing outside true = active, false = inactive is accepted.

Some solved entries appear below for comparison.
O=C1CCCCC/C1=C\c1ccc([N+](=O)[O-])cc1 ... false
O=C(/C=C/c1ccccc1)NC1C=Nc2ccc([N+](=O)[O-])cc2NC1=O (stereo not drawn) ... false
COc1ccc(CNC(=O)[C@H](Cc2ccc(O)cn2)NC(C)=O)cc1 ... false
O=c1ccc2ccc(CBr)cc2o1 ... false
CC(=O)c1ccc(NC(=O)C(=O)Nn2c(S)nc3ccccc3c2=O)cc1 ... false
NC(N)NCCCc1cn2c(n1)C1CCCN1C(=O)C2Cc1ccccc1 (stereo not drawn) ... false

We next turn to a different compound, shown below.
Data request: Hi, do you know how "COC(=O)C1=Nc2c(C)nn(-c3ccccc3)c2N=C(c2ccccc2)C1" came out in this test?
Data returned: false

* * *

System: DMS-114
PROTOCOL: NCI tumour cell line growth inhibition, 48 h
The source made the active and inactive calls. Cut-off read from the data, not from the text of the source: active = GI50 up to about 1.1 µM and inactive = higher.
PARAMETER MEASURED: GI50

Consider the reported GI50 for these compounds:
COC(=O)[C@@H]1C(=O)O[C@@H](c2cc(OC)c(OC)cc2OC)[C@@H]1C(=O)OC.COC(=O)[C@H]1C(=O)O[C@@H](c2cc(OC)c(OC)cc2OC)[C@@H]1C(=O)OC ... > 100 µM (inactive)
CC1(C)C2CCC3(C2)CS(=O)(=O)N2OC231 (stereo unspecified) ... 12.2 µM (inactive)
CCNC(=O)O/N=C1\CCC2[C@@H]3CC=C4C[C@@H](OC5CCCCO5)CC[C@]4(C)C3CC[C@]12C (stereo partly specified) ... 1.26 µM (inactive)
CCCc1n[nH]c(CCC(=O)N(Cc2ccccc2)Cc2ccccc2)c1CC ... > 100 µM (inactive)
Cc1occ2c1C(=O)CC1C2[C@@H](O)CC2C(C)(C)CCC[C@]12C (stereo partly specified) ... 82.8 µM (inactive)
C/C(CC(=O)NC1=CC=C(NC(=O)C/C(C)=N\Nc2ccccc2)CC1)=N/Nc1ccccc1 ... > 100 µM (inactive)

// each listed compound needs a value for GI50
1. COc1ccc2c[n+](C)c3c4cc(OC)c(OC)cc4ccc3c2c1
2. CCOC(=O)Cc1csc(Nc2ccccc2[N+](=O)[O-])n1
3. Cc1cccc(NC(=O)CSc2nnc(Cc3ccccc3)o2)c1
4. COC(=O)C(Cc1ccccc1)NC(=O)Cn1ccnc1[N+](=O)[O-] (stereo unspecified)
5. CC(C)c1ccccc1NC(=O)CCc1n[nH]c(=S)o1

Data returned:
1: 1.05 µM (active); 2: > 100 µM (inactive); 3: > 100 µM (inactive); 4: > 100 µM (inactive); 5: > 67 µM (inactive)

* * *

Test system: NCI-H460
PROTOCOL: NCI tumour cell line growth inhibition, 48 h
Activity calls are given as the source filed them. Rule as the data show it: active = GI50 up to about 1.1 µM and inactive = higher.
Choose the fitting class; nothing outside T = active, F = inactive is accepted.

Some solved entries appear below for comparison.
Cc1ccc(S(=O)(=O)NNC(=S)Nc2cccc3ccccc23)cc1 ... F
CC(=O)OC1C(Oc2c(C)cc3c(c2O)[C@@H](C)CC[C@@H]3[C@@H](C)CCC=C(C)C)OCC(O)C1O (some centres undefined) ... F
CCOC(=O)COc1ccc2c(C)cc(=O)oc2c1 ... F

Data request: Hi, do you know how CCOc1c(OC)cc(-c2nc3n(n2)C(=O)C(CC)S3)cc1OC (centres undefined) came out in this test?
Data returned: F

Data request: Also need Nc1ccn(C2OC(COP(=O)(O)O)C(O)C2O)c(=O)n1 (centres undefined) , thanks.
Data returned: T

Data request: Also need "CCN(CCCl)c1cc(CN(C)C)cc(NC(=O)c2cc(C(=O)Nc3cc(CN(C)C)cc(N(CC)CCCl)c3)n(C)n2)c1" , thanks.
Data returned: T

Data request: Also need "CCCCn1cnc2c(SC)ncnc21" , thanks.
Data returned: F

Data request: Also need CC[C@]1(O)CC(OC2CC(N(C)C)C(O)C(C)O2)c2c(cc3c(c2O)C(=O)c2c(O)cccc2C3=O)[C@@H]1C(=O)OC (some centres undefined) , thanks.
Data returned: T

Data request: Also need COC1C=COC2(C)Oc3c(C)c(O)c4c(O)c(c(C5SCCS5)c(O)c4c3C2=O)NC(=O)/C(C)=C\C=CC(C)C(O)C(C)C(O)C(C)C(OC(C)=O)C1C (centres undefined) , thanks.
Data returned: F
